Some binders, each annotated with its measured OD450.
Target: T1, Peptide 4: Biotin-AGGGGSGGGGSGGGGSAAA-Tyr-acid (N-terminal biotin; C-terminal acid)
T1 construct: Control peptide without PC
T1 peptide: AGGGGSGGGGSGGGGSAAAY
Test: scFv ELISA
Quantity measured: OD450 (OD450)

INSERT INTO assay_data (binder, value_measured) VALUES
  ('PcOxP_DB04_G05 (scFv, V domains shown, scFv in periplasmic extract) VH: EVQLLESGGGLVQPGGSLRLSCAASGFTFSDFYMEWVRQAPGKGLEWVAASRNKANDYTTEYADSVKGRFTISRDNSKNTLYLQMNSLRAEDTAVYYCARDFYGSSYWYFDVWGQGTLVTVSS VL: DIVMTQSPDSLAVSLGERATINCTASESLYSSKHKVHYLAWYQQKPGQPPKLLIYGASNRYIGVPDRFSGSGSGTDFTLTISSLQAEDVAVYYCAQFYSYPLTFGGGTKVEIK', 0.05),
  ('PcOxP_DB04_A04 (scFv, V domains shown, scFv in periplasmic extract) VH: EVQLLESGGGLVQPGGSLRLSCAASGFTFSDFYMEWVRQAPGKGLEWVAASRNKWNDYTTEYADSVKGRFTISRDNSKNTLYLQMNSLRAEDTAVYYCARDYYGSSYWYFDVWGQGTLVTVSS VL: DIVMTQSPDSLAVSLGERATINCTASQSVYSSKNKKHYLAWYQQKPGQPPKLLIYGASNRYIGVPDRFSGSGSGTDFTLTISSLQAEDVAVYYCAQFYRYPLTFGGGTKVEIK', 0.08),
  ('PcOxP_DB02_F09 (scFv, V domains shown, scFv in periplasmic extract) VH: EVQLLESGGGLVQPGGSLRLSCAASGFQFSDFYMEWVRQAPGKGLEWVAASRNKGNSYTTAYADSVKGRFTISRDNSKNTLYLQMNSLRAEDTAVYYCARDYYGSSYWYFDVWGQGTLVTVSS VL: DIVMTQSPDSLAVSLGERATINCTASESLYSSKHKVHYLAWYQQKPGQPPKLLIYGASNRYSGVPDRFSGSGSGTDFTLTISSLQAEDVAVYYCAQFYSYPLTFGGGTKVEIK', 0.04);
